We begin with a simple list: items and their reported %Inh.
- Tested on: p38-beta;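 also: KINOMEscan kinase panel screen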
- Construct: gene MAPK11
- measurement conditions: concentration: 1 μM, replicates: in singlicate; n = 1
Report only the number, with the unit % understood.

# example entries with known answers
{"compound": "COc1ccc(C2=C(Nc3cccc(O)c3)C(=O)NC2=O)cc1 [SB-390766]", "output unit": "%", "%Inh": 0}
{"compound": "O=C(O)C(F)(F)F.O=c1[nH]ccc2nc(N[C@@H]3CCNC3)nc(Nc3ccc4c(c3)S(=O)(=O)CC4)c12 [GSK2181306]", "output unit": "%", "%Inh": 0}
{"compound": "O=C1NC(=O)C(c2ccccc2Cl)=C1Nc1cccc(Cl)c1 [SB-342409]", "output unit": "%", "%Inh": 0}
{"compound": "Cc1ccc(C)c(NC(=O)Nc2ccc(C)c(-c3ccc(C(=O)Nc4ccncc4)cc3)c2)c1 [GSK1398473]", "output unit": "%", "%Inh": 0}
{"compound": "CSc1ccc(NC2=C(c3ccc(Cl)cc3)C(=O)NC2=O)cc1 [SB-317658]", "output unit": "%", "%Inh": 12}

Find %Inh (p38-beta) for the entry Nc1ncc(-c2ccc3nccc(-c4ccncc4)c3c2)cc1S(=O)(=O)N1CCCCC1 [GSK1693850]
0

Find %Inh (p38-beta) for the entry Cc1cc(-c2ccnc(Nc3cccc(C#N)c3)n2)cc(C)c1O [GSK1440913]
0

Find %Inh (p38-beta) for the entry COc1cccc2c(-c3ccncc3)c(-c3ccc(F)cc3)nn12 [GW468513]
82

Find %Inh (p38-beta) for the entry Cc1ccccc1CC(=O)N1CCc2cc(-c3cn(C)c4ncnc(N)c34)ccc21 [GSK2603346]
0

Find %Inh (p38-beta) for the entry Cc1ccc(O)cc1Nc1ccnc2cc(-c3ccc(CN4CCCCC4)o3)ccc12 [GW557777]
6

Find %Inh (p38-beta) for the entry `CC(C)(C)c1ccc(C(=O)Nc2cn3cc(-n4ccnc4)ccc3n2)cc1`
9

Find %Inh (p38-beta) for the entry Cn1cc(-c2ccc3c(c2)CCN3C(=O)Cc2cc(F)cc(C(F)(F)F)c2)c2c(N)ncnc21 [GSK2635225]
0

Find %Inh (p38-beta) for the entry Cc1ccc(Nc2ccnc(Nc3ccc(C)c(F)c3)n2)cc1O.Cl [GW582868]
0

Find %Inh (p38-beta) for the entry CN(c1ccc(NC(=O)Nc2cccc(Cl)c2)cc1)c1ccnc(N)n1.Cl [GW830707]
6

Find %Inh (p38-beta) for the entry CN(C)CCNS(=O)(=O)c1ccc(-c2ccnc3[nH]ccc23)cc1 [GSK977620]
1

Find %Inh (p38-beta) for the entry Fc1cc(Cl)ccc1Nc1ccnc2cc(-c3ccc(CN4CCOCC4)o3)ccc12 [GW560109]
0

Find %Inh (p38-beta) for the entry Cc1cc(-c2c(-c3ccc(F)cc3)ncn2CCCN2CCOCC2)nc(N)n1 [SB-222517]
17

Find %Inh (p38-beta) for the entry `CCNc1nccc(-c2c(-c3ccc(F)cc3)ncn2C2CCN(C)CC2)n1`
63
